Condition Description: 22 °C
solubility values by entry
# output: bare number, implied unit µM

Some compounds with known solubility results, for comparison:
O=C(OCC(=O)N1CCOCC1)c1ccccc1	16900
O=C(OCC(=O)N1CCCCCC1)c1ccccc1	2870

In plain terms, `CCCNC(=O)COC(=O)c1ccccc1` has a documented solubility of 2890

In plain terms, `CC(C)(C)NC(=O)COC(=O)c1ccccc1` has a documented solubility of 1360

In plain terms, `CCCCN(CCCC)C(=O)COC(=O)c1ccccc1` has a documented solubility of 275

In plain terms, `CCN(CC)C(=O)COC(=O)c1ccccc1` has a documented solubility of 8500

In plain terms, `CCNC(=O)COC(=O)c1ccccc1` has a documented solubility of 5790

----------
logP values by entry

Some compounds with known logP results, for comparison:
NC(=O)COC(=O)c1ccccc1	0.69
CCCC(=O)OCOC(=O)c1ccccc1OC(C)=O	2.5
CC(=O)N(C)CCOC(=O)c1ccccc1	1.24

Turning to the following compound.
In plain terms, `CC(=O)N(C)C(=O)COC(=O)c1ccccc1` has a documented logP of 1.58

----------
logP values by entry
// return just the number, without any unit appended

Some compounds with known logP results, for comparison:
CC(C)(C)NC(=O)COC(=O)c1ccccc1	2.26
CCCCCCN(CCCCCC)C(=O)COC(=O)c1ccccc1	6.53
COCCN(CCOC)C(=O)COC(=O)c1ccccc1	1.28
CCN(CC)C(=O)C(C)OC(=O)c1ccccc1 (configuration not stated)	2.3
CCNC(=O)COC(=O)c1ccccc1	1.28

In plain terms, `O=C(OCC(=O)N1CCC(O)CC1)c1ccccc1` has a documented logP of 0.63

In plain terms, `CCCOC(=O)n1c(-c2cscn2)nc2ccccc21` has a documented logP of 2.98

----------
logP values by entry
// return just the number, without any unit appended

NC(=O)C1CCCN1C(=O)COC(=O)c1ccccc1 (stereo not given)	0.2
CC(C)NC(=O)COC(=O)c1ccccc1	1.73
CC(=O)NC(=O)COC(=O)c1ccccc1	1.24
CCCCNC(=O)COC(=O)c1ccccc1	2.36
CC(=O)Oc1ccccc1C(=O)OCCN(C)C(C)=O	1.46
CC(O)CN(CC(C)O)C(=O)COC(=O)c1ccccc1 (stereo not given)	0.66

In plain terms, `CCCCCCN(C)C(=O)COC(=O)c1ccccc1` has a documented logP of 2.99

In plain terms, `CNC(=O)COC(=O)c1ccccc1` has a documented logP of 0.99

In plain terms, `CCCNC(=O)COC(=O)c1ccccc1` has a documented logP of 1.88

In plain terms, CC(NC(=O)COC(=O)c1ccccc1)C(N)=O (stereo not given) has a documented logP of 0.42

----------
log10 solubility values by entry
Condition Description: 22 °C
Values below are the log10 of the recorded solubility, with µM as the unit.

Some molecules with known log10 solubility results, for comparison:
CC(C)NC(=O)COC(=O)c1ccccc1	3.27
CC(=O)N(C)C(=O)COC(=O)c1ccccc1	3.13
O=C(OCC(=O)N1CCCCC1)c1ccccc1	3.50

In plain terms, `NC(=O)COC(=O)c1ccccc1` has a documented log10 solubility of 4.36

In plain terms, `CCCCNC(=O)COC(=O)c1ccccc1` has a documented log10 solubility of 3.24

In plain terms, `O=C(OCC(=O)N1CCC(O)CC1)c1ccccc1` has a documented log10 solubility of 4.65

In plain terms, `CCCCCCNC(=O)COC(=O)c1ccccc1` has a documented log10 solubility of 2.10

In plain terms, `C=CCN(CC=C)C(=O)COC(=O)c1ccccc1` has a documented log10 solubility of 3.44

In plain terms, `C[C@H](NC(=O)COC(=O)c1ccccc1)C(N)=O` has a documented log10 solubility of 3.28

In plain terms, `CN(C)C(=O)COC(=O)c1ccccc1` has a documented log10 solubility of 4.63

In plain terms, `CNC(=O)COC(=O)c1ccccc1` has a documented log10 solubility of 4.28

In plain terms, `CC(=O)NC(=O)COC(=O)c1ccccc1` has a documented log10 solubility of 3.60

----------
logP values by entry
// return just the number, without any unit appended

O=C(COC(=O)c1ccccc1)NC(CO)(CO)CO	0.25
O=C(OCC(=O)N1CCC1C(=O)O)c1ccccc1 (stereo not drawn)	0.79

Turning to the following compound.
In plain terms, `CCCCCCNC(=O)COC(=O)c1ccccc1` has a documented logP of 2.81

Every entry's value here was drawn from the OPERA property sets (Mansouri et al. 2018).
